The reported measurements were obtained from patent US8017612B2.

- TESTED ON: HCV polymerase (NS5B) type 1b (Hepatitis C virus genotype 1b, UniProt P26663)
- Construct: a region encoding NS5B (J Virol 1991 March, 65(3), 1105-13, 544 amino acids after deletion of 47 amino acids on the C-terminal); 6xHis (C); made in house; host or cells: Escherichia coli
- Sequence (P26663 2420-2963): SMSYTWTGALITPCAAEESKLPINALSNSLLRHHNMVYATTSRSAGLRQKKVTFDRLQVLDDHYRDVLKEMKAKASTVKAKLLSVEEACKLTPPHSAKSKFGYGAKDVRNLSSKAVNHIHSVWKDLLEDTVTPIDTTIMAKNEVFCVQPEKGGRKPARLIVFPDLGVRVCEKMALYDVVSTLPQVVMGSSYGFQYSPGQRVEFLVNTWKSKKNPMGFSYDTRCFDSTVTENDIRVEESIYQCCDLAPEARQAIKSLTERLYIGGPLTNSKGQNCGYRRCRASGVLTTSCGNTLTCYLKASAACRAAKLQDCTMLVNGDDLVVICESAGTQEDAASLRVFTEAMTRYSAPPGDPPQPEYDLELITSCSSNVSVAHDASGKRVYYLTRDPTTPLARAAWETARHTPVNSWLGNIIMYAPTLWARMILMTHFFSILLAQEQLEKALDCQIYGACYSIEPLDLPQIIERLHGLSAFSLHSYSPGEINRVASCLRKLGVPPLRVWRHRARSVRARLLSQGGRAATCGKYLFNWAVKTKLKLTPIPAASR
- PROTOCOL DESCRIPTION: Assay of enzyme (HCV polymerase) inhibitory activity, type 1b enzyme
- Assay type: biochemical, HCV BK strain (type 1b)
- TEST SETTINGS: HCV polymerase inhibitory activity (IC50), 1b, type 1b enzyme 0.5 μg/ml, 25° C., 60 min
pIC50: −log10 of the molar value.
Kindly supply the reported pIC50 values for the records listed here.

Check the records and state pIC50 for CC(C)c1ccc(S(=O)(=O)N2CCN(S(C)(=O)=O)CC2C(=O)NCc2ccc(C(F)(F)F)cc2)cc1 (stereo not shown)
< 6.00

Check the records and state pIC50 for CCCc1ccc(CNC(=O)[C@H]2CN(c3cnc(CN(C)C)cn3)CCN2S(=O)(=O)c2ccc(CC)cc2)cc1
> 7.00

Check the records and state pIC50 for CCCc1ccc(S(=O)(=O)N2CCN(C(C)=O)C[C@@H]2C(=O)NCc2ccc(C(C)C)cc2)s1
> 7.00

Check the records and state pIC50 for CCCc1ccc(CNC(=O)[C@H]2CN(c3nc(C)c(C(=O)O)s3)CCN2S(=O)(=O)c2ccc(CC)cc2)cc1
> 7.00
